biological target: ErbB4 on neonatal rat cardiomyocytes (rat) (UniProt Q62956); assay: cell-based or functional assay
Sequence (Q62956 26-1308): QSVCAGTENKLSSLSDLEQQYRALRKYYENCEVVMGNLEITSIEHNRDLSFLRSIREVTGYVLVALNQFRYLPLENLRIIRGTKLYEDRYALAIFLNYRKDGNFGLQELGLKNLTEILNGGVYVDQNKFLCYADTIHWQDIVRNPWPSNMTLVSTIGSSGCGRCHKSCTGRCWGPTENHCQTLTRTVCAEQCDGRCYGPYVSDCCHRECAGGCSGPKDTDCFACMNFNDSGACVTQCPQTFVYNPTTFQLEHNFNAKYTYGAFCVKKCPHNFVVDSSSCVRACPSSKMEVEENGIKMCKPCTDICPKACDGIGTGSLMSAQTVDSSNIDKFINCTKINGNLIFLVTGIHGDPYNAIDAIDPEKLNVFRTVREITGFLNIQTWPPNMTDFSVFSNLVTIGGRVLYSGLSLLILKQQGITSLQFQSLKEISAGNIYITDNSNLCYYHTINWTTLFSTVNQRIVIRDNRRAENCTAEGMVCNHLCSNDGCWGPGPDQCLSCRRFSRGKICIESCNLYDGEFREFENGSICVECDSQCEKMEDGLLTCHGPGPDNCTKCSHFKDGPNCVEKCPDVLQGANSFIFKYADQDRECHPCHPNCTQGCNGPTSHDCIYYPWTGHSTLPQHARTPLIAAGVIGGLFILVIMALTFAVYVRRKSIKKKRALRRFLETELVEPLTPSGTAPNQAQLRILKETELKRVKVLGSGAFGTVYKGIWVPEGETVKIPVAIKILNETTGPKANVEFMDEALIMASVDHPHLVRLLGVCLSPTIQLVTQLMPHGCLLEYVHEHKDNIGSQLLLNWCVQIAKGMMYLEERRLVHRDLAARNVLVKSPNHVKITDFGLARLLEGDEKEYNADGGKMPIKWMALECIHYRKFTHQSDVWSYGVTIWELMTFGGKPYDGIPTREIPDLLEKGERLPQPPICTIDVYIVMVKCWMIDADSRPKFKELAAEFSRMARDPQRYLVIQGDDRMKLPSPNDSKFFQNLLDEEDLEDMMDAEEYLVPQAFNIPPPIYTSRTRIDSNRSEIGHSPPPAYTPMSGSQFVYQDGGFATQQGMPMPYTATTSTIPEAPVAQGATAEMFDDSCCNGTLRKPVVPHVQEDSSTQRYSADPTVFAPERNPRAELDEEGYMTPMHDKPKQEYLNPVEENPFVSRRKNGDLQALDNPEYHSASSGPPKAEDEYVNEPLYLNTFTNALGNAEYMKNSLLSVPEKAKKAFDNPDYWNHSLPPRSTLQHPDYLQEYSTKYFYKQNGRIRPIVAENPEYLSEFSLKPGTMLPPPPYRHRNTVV
PARAMETER: Cardiomyocyte (CM) (ErbB4) Avg EC50 (nM)

- BINDER: "huNRG1(S177-Q237)(NRGE1B)::GG::huFcSEFL2 (Pb) (Fc fusion) SHLVKCGENDKSFCVNGGECYMVEGSSIPSRYLCKCPNEFTGDRCQEDFMASFYKAEELYQGGDKTHTCPPCPAPELLGGPSVFLFPPKPKDTLMISRTPEVTCVVVDVSHEDPEVKFNWYVDGVEVHNAKTKPCEEQYGSTYRCVSVLTVLHQDWLNGKEYKCKVSNKALPAPIEKTISKAKGQPREPQVYTLPPSREEMTKNQVSLTCLVKGFYPSDIAVEWESNGQPENNYKTTPPVLDSDGSFFLYSKLTVDKSRWQQGNVFSCSVMHEALHNHYTQKSLSLSPGK"
  UNIT_INFO: "nM"
  Cardiomyocyte (CM) (ErbB4) Avg EC50: 1.48

A: huNRG1(S177-F229)(NRGE1D) 6xHis (ligand) SHLVKCGESHKSFCVNGGECYMVEGSSIPSRYLCKCPNEFTGDRCQEDFMASFGGGGEGGGGAGGGGHHHHHH
B: huNRG1(S177-F229)(NRGE1C) (E47K_D48T_F49S_M50L) 6xHis (ligand) SHLVKCGEKHKSFCVNGGECFMIEGPSNPSRYLCKCPNEFTGDRCQKTSLASFGGGGEGGGGAGGGGHHHHHH
Prompt line: Field: lower Cardiomyocyte (CM) (ErbB4) Avg EC50 | Options: A / B Let me know the label of the one you choose.
Response line: A
